measurement-target: T1, human SIRPα v1 ECD recombinant protein (human, UniProt P78324 31-373)
T1 construct: extracellular domain; Coated on the ELISA plate
T1 sequence (P78324 31-373): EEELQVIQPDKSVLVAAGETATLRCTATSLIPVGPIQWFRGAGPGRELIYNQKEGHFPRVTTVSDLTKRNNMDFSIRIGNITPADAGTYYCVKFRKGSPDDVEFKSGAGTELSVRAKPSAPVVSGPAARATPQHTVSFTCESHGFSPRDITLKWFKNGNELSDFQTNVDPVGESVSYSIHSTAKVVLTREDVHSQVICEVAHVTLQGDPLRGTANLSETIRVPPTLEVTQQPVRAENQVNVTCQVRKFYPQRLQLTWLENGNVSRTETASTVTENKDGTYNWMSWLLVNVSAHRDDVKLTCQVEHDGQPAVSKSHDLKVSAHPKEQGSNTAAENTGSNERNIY
test-method-notes: competitive ELISA, plate-coated human SIRPα v1 ECD; blocked ligand: mFc tagged human CD47 ECD
Method: Competitive ELISA assay was used to determine whether the purified chimeric antibodies can block CD47 and SIRPα interaction. Briefly, antibody and mFc tagged human CD47 ECD recombinant protein were co-incubated with ELISA microplate coated human SIRPα v1 ECD or human SIRPα v2 ECD recombinant protein. […] OD 450 nm was read. Blocking ratio was determined by blockade of human SIRPα ECD recombinant protein binding to ELISA microplate coated human CD47 ECD recombinant protein. […]
measure-name: pIC50
// scale note: pIC50 = -log10(conc_M); give the bare number

# example entries with known answers
[
  {
    "binder": "Humanized anti-SIRPα antibody hu025.021 (antibody, V domains shown, Humanized from C25) VH: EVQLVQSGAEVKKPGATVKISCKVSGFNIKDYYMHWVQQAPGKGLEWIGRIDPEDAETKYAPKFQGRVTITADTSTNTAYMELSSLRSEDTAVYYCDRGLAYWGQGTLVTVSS VL: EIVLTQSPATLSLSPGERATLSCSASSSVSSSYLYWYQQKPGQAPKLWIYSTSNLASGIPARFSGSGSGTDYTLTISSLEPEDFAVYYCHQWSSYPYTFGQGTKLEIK",
    "meas-value": 8.68
  },
  {
    "binder": "Humanized anti-SIRPα antibody hu025.023 (antibody, V domains shown, Humanized from C25) VH: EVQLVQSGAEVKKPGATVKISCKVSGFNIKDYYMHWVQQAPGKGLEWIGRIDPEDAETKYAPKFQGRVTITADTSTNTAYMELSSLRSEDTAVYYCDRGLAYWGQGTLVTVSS VL: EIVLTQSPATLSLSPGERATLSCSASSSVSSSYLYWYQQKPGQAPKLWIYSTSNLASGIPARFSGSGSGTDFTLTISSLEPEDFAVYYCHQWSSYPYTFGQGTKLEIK",
    "meas-value": 8.59
  }
]

Shifting focus to the binder that follows.
Look up pIC50 for this binder: Anti-SIRPα antibody C25 (antibody, V domains shown, Mouse variable regions; also called 025c; 025) VH: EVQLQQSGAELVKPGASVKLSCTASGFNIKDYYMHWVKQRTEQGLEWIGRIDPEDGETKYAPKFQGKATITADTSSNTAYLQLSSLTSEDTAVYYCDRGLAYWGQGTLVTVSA VL: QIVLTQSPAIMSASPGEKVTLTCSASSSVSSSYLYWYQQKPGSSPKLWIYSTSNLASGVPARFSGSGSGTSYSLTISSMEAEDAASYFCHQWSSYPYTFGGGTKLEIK
8.69
